Assayed target: GK-GKRP (glucokinase / glucokinase regulatory protein) (Homo sapiens)
Sequence (Q14397 whole entry): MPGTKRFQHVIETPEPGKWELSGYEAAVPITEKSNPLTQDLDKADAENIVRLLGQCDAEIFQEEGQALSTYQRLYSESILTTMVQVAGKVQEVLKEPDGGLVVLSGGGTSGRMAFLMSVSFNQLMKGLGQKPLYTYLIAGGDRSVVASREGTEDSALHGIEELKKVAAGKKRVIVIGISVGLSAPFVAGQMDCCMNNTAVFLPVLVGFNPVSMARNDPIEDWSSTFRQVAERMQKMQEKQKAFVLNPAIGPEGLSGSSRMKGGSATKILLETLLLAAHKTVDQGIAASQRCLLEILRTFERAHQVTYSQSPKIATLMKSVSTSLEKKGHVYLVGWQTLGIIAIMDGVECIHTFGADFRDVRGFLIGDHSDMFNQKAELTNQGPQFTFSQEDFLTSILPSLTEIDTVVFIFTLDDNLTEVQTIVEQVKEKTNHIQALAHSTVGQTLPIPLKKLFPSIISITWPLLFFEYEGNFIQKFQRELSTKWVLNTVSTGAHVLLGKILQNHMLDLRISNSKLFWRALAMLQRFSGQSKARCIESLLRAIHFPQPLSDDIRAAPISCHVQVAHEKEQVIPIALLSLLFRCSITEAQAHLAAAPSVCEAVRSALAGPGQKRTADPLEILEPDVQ
Measurement notes: GKRP LC MS/MS Biochemical Assay (LCMS/MS)
Measurement context: formation of 13C-glucose-6-phosphate from 13C-glucose by LC MS/MS, human His-hepatic GK, fructose-6-phosphate
Readout type: EC50 (nM)

| Compound | Result number |
| --- | --- |
| O=S(=O)(NC(c1ncccn1)c1cc2ccccc2o1)c1ccc2c(c1)OCCCO2 (racemic) | 990 |
| O=S(=O)(NC(c1ccccc1)c1cc2ncccc2s1)c1ccc2c(c1)OCCCO2 (racemic) | 2500 |
| O=S(=O)(NC(c1cc2ccccc2o1)c1cccnc1Cl)c1ccc2c(c1)OCCCO2 (racemic) | 1200 |
| C[C@](O)(c1ccnc(-c2cccc3cc([C@H](NS(=O)(=O)c4ccc5c(c4)OCCCO5)c4ccccc4)sc23)c1)C(F)(F)F (single isomer, unassigned) [Example 70 Peak #2] | 22 |
| Cc1cccnc1C(NS(=O)(=O)c1ccc2c(c1)OCCCO2)c1cc2ccccc2o1 (racemic) | 190 |
| O=S(=O)(NC(c1cc2ccccc2o1)c1ccccc1Cl)c1ccc2c(c1)OCCCO2 (racemic) | 70 |
| C[C@](O)(c1ccnc(-c2cccc3cc([C@@H](NS(=O)(=O)c4ccc5c(c4)OCCCO5)c4ccccc4)sc23)c1)C(F)(F)F (racemic) [Example 70] | 26 |

====

Assayed target: GK-GKRP (glucokinase / glucokinase regulatory protein) (Homo sapiens)
Measurement notes: GKRP LC MS/MS Biochemical Assay (LCMS/MS)
Measurement context: formation of 13C-glucose-6-phosphate from 13C-glucose by LC MS/MS, human His-hepatic GK, fructose-6-phosphate
pEC50: −log10 of the molar value.
// values below are reported pEC50

| Compound | Value qualifier | pEC50 |
| --- | --- | --- |
| COc1cccnc1C(NS(=O)(=O)c1ccc2c(c1)OCCCO2)c1cc2ccccc2o1 (racemic) | = | 6.82 |
| O=S(=O)(N[C@@H](c1ccccc1)c1cc2ccccc2s1)c1ccc2c(c1)OCCCO2 (single isomer, unassigned) [Example 57 Peak #1] | = | 6.15 |
| COc1ccccc1[C@@H](NS(=O)(=O)c1ccc2c(c1)OCCCO2)c1nc2cccnc2s1 (single isomer, unassigned) [Example 67 Peak #2] | = | 7.62 |
| COc1cccnc1C(NS(=O)(=O)c1ccc2c(c1)OCCCO2)c1cc2cccnc2s1 (racemic) | = | 6.82 |
| O=S(=O)(NC(c1ccccc1)c1cc2cccc(-c3ccccc3)c2s1)c1ccc2c(c1)OCCCO2 (racemic) | = | 6.00 |
| Cc1ccccc1C(NS(=O)(=O)c1ccc2c(c1)OCCCO2)c1oc2ccccc2c1C (racemic) | = | 5.70 |
| O=S(=O)(NC(c1ccccc1)c1cc2cccc(Cl)c2s1)c1ccc2c(c1)OCCCO2 (racemic) | = | 6.32 |
| CCc1ccccc1[C@H](NS(=O)(=O)c1ccc2c(c1)OCCCO2)c1cc2ccccc2o1 (single isomer, unassigned) [Example 6 Peak #1] | < | 4.30 |
| CSc1ccccc1[C@H](NS(=O)(=O)c1ccc2c(c1)OCCCO2)c1cc2ccccc2o1 (single isomer, unassigned) [Example 19 Peak #1] | = | 6.54 |
| COc1ccccc1C(NS(=O)(=O)c1ccc2c(c1)OCCCO2)c1cc2ccccc2s1 (racemic) | = | 7.34 |
| O=S(=O)(NC(c1ccccc1)c1cc2ccccc2o1)c1ccc2c(c1)OCC(F)CO2 (racemic) | = | 5.51 |
| CSc1ccccc1[C@@H](NS(=O)(=O)c1ccc2c(c1)OCCCO2)c1cc2ccccc2o1 (single isomer, unassigned) [Example 19 Peak #2] | = | 7.64 |
| O=S(=O)(NC(c1ccccc1)c1cc2ccncc2s1)c1ccc2c(c1)OCCCO2 (racemic) | = | 6.24 |
| COc1ccccc1C(NS(=O)(=O)c1ccc2c(c1)OCCCO2)c1cc2ccccc2o1 (racemic) | = | 7.02 |
| O=S(=O)(NC(c1ccccc1)c1ccc2ccccc2n1)c1ccc2c(c1)OCCCO2 (racemic) | = | 6.14 |
